Origin of the recorded values: the NIST ThermoML archive (doi:10.1021/je5004719)

- conditionDescription: 298.15 K; 101.33 kPa; Liquid; Sing-around technique in a fixed-path interferometer
Record form. Attribute: speed of sound. Fill in for each entry.
One number for each entry, in m/s.

Cc1ccccc1; 1304.6
Cc1ccccc1Cl; 1298.7
c1ccccc1; 1299.4

# batch size: 2; output speed of sound per entry
1. C1CCOCC1 [tetrahydropyran]
2. Cc1ccccc1C

[reply]
1: 1269.8; 2: 1346.2

###

- conditionDescription: 298.15 K; 101.33 kPa; Liquid; Vibrating tube method
# note: exactly 900 kg/m3 is not below, so it is criterion not met; use criterion met for mass density strictly under it

Cc1ccccc1Cl; criterion not met

Now consider a different compound.
[ask] Answer whether the compound Cc1ccccc1 has mass density strictly less than 900 kg/m3
[reply] criterion met

###

- conditionDescription: 308.15 K; 101.33 kPa; Liquid; Vibrating tube method
Given measured mass density, output YES if it is greater than or equal to 900 kg/m3 and NO if not.

Some entries whose results are on file:
C1CCOCC1 [tetrahydropyran]; NO
Cc1ccccc1; NO
Cc1ccccc1C; NO
c1ccccc1; NO

[ask] Could you tell me if the measured mass density of Cc1ccccc1Cl reaches 900 kg/m3 or more?
[reply] YES

###

- conditionDescription: 298.15 K; 101.33 kPa; Liquid; Vibrating tube method
± gives the expanded uncertainty stated by the source.
propertyName: mass density
Please don't drop the unit; write it after the number.

c1ccccc1 [benzene]; 873.54 ± 1 kg/m3
Cc1ccccc1C [1,2-dimethylbenzene]; 875.91 ± 1 kg/m3

Could you now consider this next compound?
[ask] State, in one line, measured mass density of C1CCOCC1 [tetrahydropyran]
[reply] 879.13 ± 1 kg/m3
